# System: crabgrass
# Method: Test B pre/postemergence crabgrass
# Format: in vivo, Digitaria sanguinalis
# Experimental Conditions: Preemergence, Rate 250 g/ha; scale of 0 to 10 where 0 is no effect and 10 is complete control
Property Label: Plant response rating, Crabgrass
Give only the figure.

Plant response rating, Crabgrass recorded for this molecule, CCN(CC)C(=O)n1oc(=O)n(-c2ccc(F)cc2)c1=O [Compound 3] , is 0

Reported Plant response rating, Crabgrass of CC(C)N(C(=O)n1oc(=O)n(Cc2ccccc2)c1=O)c1ccc(Cl)cc1 [Compound 106] : 8

So for CC(C)N(C(=O)n1oc(=O)n(-c2ccc(F)cc2F)c1=O)c1ccc(F)cc1F [Compound 22] , the logged Plant response rating, Crabgrass turned out to be 8

Entry under test: CN(C(=O)n1oc(=O)n(Cc2cccs2)c1=O)c1ccccc1 [Compound 83] . Its Plant response rating, Crabgrass was 0

Record Cc1ccc(-n2c(=O)on(C(=O)N(c3ccc(F)cc3F)C(C)C)c2=O)c(C)c1 [Compound 24] , field Plant response rating, Crabgrass: 9

Value of Plant response rating, Crabgrass reported for the molecule Cc1ccccc1-n1c(=O)on(C(=O)N(c2ccc(F)cc2)C2CC2)c1=O [Compound 37] is 3

COc1cccc(C)c1-n1c(=O)on(C(=O)N(c2ccccc2)C(C)C)c1=O [Compound 73] yielded Plant response rating, Crabgrass of 8

Entry CCN(Cc1ccccc1)C(=O)n1oc(=O)n(-c2ccccc2C)c1=O [Compound 71] , Plant response rating, Crabgrass reported as 0

====

# Tested on: blackgrass
# Method: Test B pre/postemergence blackgrass
# Format: in vivo, Alopecurus myosuroides
# Experimental Conditions: Postemergence, Rate 250 g/ha; scale of 0 to 10, 0 is no effect, 10 is complete control
Property Label: Blackgrass plant response rating
Lab note: record the figure alone, no unit after it.

Kindly note the recorded Blackgrass plant response rating for "COP(=O)(CCn1c(=O)on(C(=O)N(c2ccc(F)cc2)C(C)C)c1=O)OC" , which is 0

What the record says about CC(C)N(C(=O)n1oc(=O)n(C(C)CBr)c1=O)c1ccc(F)cc1F (stereo not drawn) : Blackgrass plant response rating is 5

get_value(item= "C=C(Cl)Cn1c(=O)on(C(=O)N(c2ccccc2)C(C)C)c1=O" , readout=Blackgrass plant response rating) returns 8

====

# Test system: sugar beet
# Method: Test B pre/postemergence sugar beet
# Assay type: in vivo, Beta vulgaris
# Experimental Conditions: Preemergence, Rate 62 g/ha; scale of 0 to 10 where 0 is no effect and 10 is complete control
Property Label: Sugarbeets plant response rating

The compound identified as "CCCCCCn1c(=O)on(C(=O)N(c2ccc(F)cc2F)C(C)C)c1=O" registered its Sugarbeets plant response rating at 0

The measured Sugarbeets plant response rating associated with "[2H]C([2H])([2H])n1c(=O)on(C(=O)N(c2ccc(F)cc2)C(C)C)c1=O" reads 3

According to the records, this compound "CC(C)N(C(=O)n1oc(=O)n(CCCCl)c1=O)c1ccc(F)cc1" displays Sugarbeets plant response rating of 3

====

Kindly state S. Flatsedge plant response rating for each of the entries shown.
# Tested on: smallflower flatsedge
# Method: Test B flood test smallflower flatsedge
# Format: in vivo, Cyperus difformis
# Experimental Conditions: Rate 500 g/ha; Pre-emergence; flood test species; scale 0 to 10 (0 no effect, 10 complete control)
Please give only the number in your answer, with no unit.

Given the compound "CC(C)N(C(=O)n1oc(=O)n(CCC2OCCO2)c1=O)c1ccc(F)cc1" and test system smallflower flatsedge, the measured S. Flatsedge plant response rating is 4

// returns S. Flatsedge plant response rating for "Cc1ccccc1-n1c(=O)on(C(=O)N(c2ccc(F)cc2Cl)C(C)C)c1=O" with smallflower flatsedge; value = 0

Observed S. Flatsedge plant response rating, smallflower flatsedge, "Cc1cc(C)n(Cn2c(=O)on(C(=O)N(c3ccccc3)C(C)C)c2=O)n1" : 0

Entry "CC(C)N(C(=O)n1oc(=O)n(Cc2nnsc2Cl)c1=O)c1ccc(F)cc1F" under smallflower flatsedge had S. Flatsedge plant response rating of 0

S. Flatsedge plant response rating of CC1CC1n1c(=O)on(C(=O)N(c2ccc(F)cc2F)C(C)C)c1=O (stereo not shown) , assay on smallflower flatsedge, is 0

Assay smallflower flatsedge, sample COC(OC)C(C)n1c(=O)on(C(=O)N(c2ccc(F)cc2)C(C)C)c1=O (stereo not shown) , S. Flatsedge plant response rating read: 0

Tested on smallflower flatsedge: "CCN(Cc1ccccc1)C(=O)n1oc(=O)n(C(C)C)c1=O" . Observed S. Flatsedge plant response rating: 0

Recorded S. Flatsedge plant response rating for "CC(C)Cn1c(=O)on(C(=O)N(c2ccccc2)C(C)C)c1=O" on smallflower flatsedge was 9

Readout S. Flatsedge plant response rating for "CC(C)N(C(=O)n1oc(=O)n(N2CCOCC2)c1=O)c1ccc(F)cc1" , test system smallflower flatsedge, was 0

"Cc1cccc(C(C)(C)C)c1-n1c(=O)on(C(=O)N(c2ccccc2)C(C)C)c1=O" on smallflower flatsedge gives S. Flatsedge plant response rating = 0

====

# Tested on: crabgrass
# Method: Test B pre/postemergence crabgrass
# Assay type: in vivo, Digitaria sanguinalis
# Experimental Conditions: Preemergence, Rate 62 g/ha; scale 0 to 10 (0 no effect, 10 complete control)
Property Label: Plant response rating, Crabgrass
// no unit string in output, number only

Form field, Plant response rating, Crabgrass with crabgrass, item CC(C)N(C(=O)n1oc(=O)n(CC2(C)COC2)c1=O)c1ccccc1 [Compound 420] : 7

Plant response rating, Crabgrass value, target or system crabgrass, for CC1CC1n1c(=O)on(C(=O)N(c2ccccc2)C(C)C)c1=O (stereo not drawn) [Compound 370] : 7

Case CC(C)N(C(=O)n1oc(=O)n(CC2CCOC2)c1=O)c1ccc(F)cc1 (stereo not drawn) [Compound 375] , crabgrass, Plant response rating, Crabgrass recorded as 7

====

# Tested on: surinam grass
# Method: Test B pre/postemergence surinam grass
# Type: in vivo, Brachiaria decumbens
# Experimental Conditions: Preemergence, Rate 500 g/ha; scale of 0 to 10 where 0 is no effect and 10 is complete control
Provide the reported Plant response rating, B. signalgrass of each item.
The response must contain the number and no unit.

Plant response rating, B. signalgrass reported for this compound "CCn1ncc(Cn2c(=O)on(C(=O)N(c3ccc(F)cc3F)C(C)C)c2=O)c1Cl" : 8

So for "CC(C)N(C(=O)n1oc(=O)n(CCC(=O)N(C)C)c1=O)c1ccc(F)cc1" , the logged Plant response rating, B. signalgrass turned out to be 8

Entry COC(=O)C(CCO)n1c(=O)on(C(=O)N(c2ccc(Cl)cc2)C(C)C)c1=O (stereo not drawn) ; Plant response rating, B. signalgrass = 0

====

# Tested on: crabgrass
# Method: Test B pre/postemergence crabgrass
# Assay type: in vivo, Digitaria sanguinalis
# Experimental Conditions: Postemergence, Rate 500 g/ha; scale of 0 to 10 where 0 is no effect and 10 is complete control
What Crabgrass plant response rating was measured for each of the following?

For reference, reported Crabgrass plant response rating for CCc1nc(C)c(C(C)n2c(=O)on(C(=O)N(c3ccc(F)cc3)C(C)C)c2=O)s1 (stereo not drawn) stands at 2

Data point: CC(C)N(C(=O)n1oc(=O)n(C(C)C#N)c1=O)c1ccccc1 (stereo not drawn) ; Crabgrass plant response rating = 8

Data point: "CC(C)Cn1c(=O)on(C(=O)N(c2ccccc2)C(C)C)c1=O" ; Crabgrass plant response rating = 10

====

# System: blackgrass
# Method: Test B pre/postemergence blackgrass
# Type: in vivo, Alopecurus myosuroides
# Experimental Conditions: Preemergence, Rate 250 g/ha; scale of 0 to 10 where 0 is no effect and 10 is complete control
Give measured Blackgrass plant response rating for each item. Keep answers brief.

Field Blackgrass plant response rating (entry "CC(C)N(C(=O)n1oc(=O)n(Cc2ccccn2)c1=O)c1ccc(F)cc1" ) reads 2

Sure, the documented Blackgrass plant response rating for COCC(C)n1c(=O)on(C(=O)N(c2ccc(F)cc2F)C(C)C)c1=O (stereo not drawn) is 9

Blackgrass plant response rating reported for this compound "CCCCCCCCCCCCCCCCCCCn1c(=O)on(C(=O)N(c2ccc(F)cc2)C(C)C)c1=O" : 0

Item: CC1CC1n1c(=O)on(C(=O)N(c2ccc(F)cc2F)C(C)C)c1=O (stereo not drawn) | Blackgrass plant response rating: 10

What the record says about "[2H]C([2H])([2H])n1c(=O)on(C(=O)N(c2ccc(F)cc2)C(C)C)c1=O" : Blackgrass plant response rating is 10

For record "CC(C)N(C(=O)n1oc(=O)n(C2(C)CC2)c1=O)c1ccc(F)cc1F" the listed Blackgrass plant response rating is 10

Blackgrass plant response rating reported for this compound "CC(C)N(C(=O)n1oc(=O)n(COCc2ccccc2)c1=O)c1ccc(F)cc1" : 1

So for "CC(C)N(C(=O)n1oc(=O)n(Cc2ccccc2-c2ccccc2)c1=O)c1ccc(F)cc1" , the logged Blackgrass plant response rating turned out to be 0

Reported Blackgrass plant response rating for "CCC(CC)n1c(=O)on(C(=O)N(c2ccc(F)cc2)C(C)C)c1=O" was 10

Entry source: patent US6737383B1
